This section lists Cytotoxicity in the MDA-kb2 assay (in words) readings for MDA-kb2 cells.
readout: Cytotoxicity in the MDA-kb2 assay (in words)

compound	recorded.result
Cc1c(COC(=O)[C@@H]2[C@H](/C=C(\Cl)C(F)(F)F)C2(C)C)cccc1-c1ccccc1 (racemic) [Bifenthrin]	cytotoxic
Cc1ccc(N(SC(F)(Cl)Cl)S(=O)(=O)N(C)C)cc1 [Tolylfluanid]	cytotoxic

* * *

- Tested on: MDA-kb2 cells
- study.conditions: EC20 = concentration that produces a 20% effect
Criterion: Cytotoxic EC20 (μM) MDA-kb2 strictly under 20 µM. Met: true. Not met: false.

Sample answers from the record:
molecule	group
COC(=O)N(OC)c1ccccc1COc1ccn(-c2ccc(Cl)cc2)n1	true
N#Cc1c[nH]cc1-c1cccc2c1OC(F)(F)O2	false
O=S1OCC2C(CO1)C1(Cl)C(Cl)=C(Cl)C2(Cl)C1(Cl)Cl (stereo not shown) [Endosulfan]	false
ClC(Cl)=C(c1ccc(Cl)cc1)c1ccc(Cl)cc1	false
Cc1c(COC(=O)[C@@H]2[C@H](/C=C(\Cl)C(F)(F)F)C2(C)C)cccc1-c1ccccc1 (racemic)	false
C=CCOC(Cn1ccnc1)c1ccc(Cl)cc1Cl (stereo not shown)	true

Please indicate whether the reported Cytotoxic EC20 (μM) MDA-kb2 of CNC(=O)Oc1cc(C)c(SC)c(C)c1 is strictly below 20 µM.
false

* * *

- system.tested: androgen receptor (AR) (Homo sapiens, UniProt P10275, Q868H)
- Construct: MDA-kb2 cells are human breast cancer cells stably transfected with a firefly luciferase reporter gene; endogenous in cells; host or cells: MDA-kb2 (human breast cancer cells)
- Sequence (P10275 whole entry Q868H): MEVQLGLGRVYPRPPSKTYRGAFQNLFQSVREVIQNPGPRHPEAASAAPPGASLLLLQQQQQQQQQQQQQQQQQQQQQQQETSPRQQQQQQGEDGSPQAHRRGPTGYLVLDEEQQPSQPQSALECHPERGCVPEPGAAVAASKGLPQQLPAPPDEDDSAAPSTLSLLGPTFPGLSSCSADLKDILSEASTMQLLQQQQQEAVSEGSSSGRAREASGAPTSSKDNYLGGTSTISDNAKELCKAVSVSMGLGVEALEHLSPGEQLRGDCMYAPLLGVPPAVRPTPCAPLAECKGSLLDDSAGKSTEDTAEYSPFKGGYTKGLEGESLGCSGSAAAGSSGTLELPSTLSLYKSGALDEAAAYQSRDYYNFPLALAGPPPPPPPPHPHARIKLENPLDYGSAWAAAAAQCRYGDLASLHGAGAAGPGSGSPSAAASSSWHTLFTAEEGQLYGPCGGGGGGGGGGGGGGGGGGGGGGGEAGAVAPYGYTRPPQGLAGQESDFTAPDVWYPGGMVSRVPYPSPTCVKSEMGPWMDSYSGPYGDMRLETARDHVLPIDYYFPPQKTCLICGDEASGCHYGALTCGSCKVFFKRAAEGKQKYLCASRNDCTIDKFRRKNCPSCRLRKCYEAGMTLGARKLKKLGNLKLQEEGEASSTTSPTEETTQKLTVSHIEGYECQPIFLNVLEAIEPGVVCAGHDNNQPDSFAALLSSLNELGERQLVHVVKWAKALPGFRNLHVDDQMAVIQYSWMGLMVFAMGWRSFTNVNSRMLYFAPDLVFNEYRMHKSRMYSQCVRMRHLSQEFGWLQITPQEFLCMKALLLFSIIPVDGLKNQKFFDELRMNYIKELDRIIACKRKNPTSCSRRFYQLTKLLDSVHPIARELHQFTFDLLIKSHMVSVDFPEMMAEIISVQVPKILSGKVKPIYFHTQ
- experiment.summary: cell-based
- study.conditions: MDA-kb2, read-out: Antiandrogen IC20 (μM) MDA-kb2
- Description: MDA-kb2 cells are human breast cancer cells stably transfected with a firefly luciferase reporter gene that is driven by an androgen-response element–containing promoter ([Wilson et al. 2002]). Details of the modified assay were published previously ([Ermler et al. 2010]). […] After 24 hr, luciferase activity was determined with SteadyGlo assay reagent (Promega UK Ltd., Southampton, Hampshire, UK) and measured in a plate reader (FLUOstar Optima, BMG Labtech GmbH, Offenburg, Germany). […]
readout: IC20 (µM)
Could you give me the number in µM? Just the number is fine.

compound	unit.string	IC20
O=S1OCC2C(CO1)C1(Cl)C(Cl)=C(Cl)C2(Cl)C1(Cl)Cl (stereo not drawn) [Endosulfan]	µM	6.05
CC12CC1(C)C(=O)N(c1cc(Cl)cc(Cl)c1)C2=O (stereo not drawn) [Procymidone, reference compound]	µM	0.163
CC(C)OC(=O)C(O)(c1ccc(Br)cc1)c1ccc(Br)cc1 [Bromopropylate]	µM	0.54
COc1ccc(C(=CC(=O)N2CCOCC2)c2ccc(Cl)cc2)cc1OC	µM	0.263
CNC(=O)Oc1cc(C)c(SC)c(C)c1	µM	6.82

Form field: reported IC20 of CCOc1ccc2c(c1)C(C)=CC(C)(C)N2
10.7

* * *

Measured IC20 of individual entries
- system.tested: androgen receptor (AR) (Homo sapiens)
- Construct: expressed in transfected cells; host or cells: yeast (YAS strain)
- experiment.summary: cell-based
- Type: cell-based
- study.conditions: coincubated with DHT 6.4 nM, 53 hr at 28°C; Neg = no response was observed; read-out: Antiandrogen IC20 (μM) YAS
Could you give me the number in µM? Just the number is fine.

molecule	IC20 / µM
Cc1ccc(N(SC(F)(Cl)Cl)S(=O)(=O)N(C)C)cc1	0.234
CC12CC1(C)C(=O)N(c1cc(Cl)cc(Cl)c1)C2=O (stereo not shown) [Procymidone, reference compound]	0.956
CCOc1ccc2c(c1)C(C)=CC(C)(C)N2	11.1

Kindly review the next molecule as well.
Form field: reported IC20 of COc1ccc(C(=CC(=O)N2CCOCC2)c2ccc(Cl)cc2)cc1OC
38.5

Reference for the values: paper PMC3114813
